Can you tell me composite z-score for the items I'm about to list?
molecular target: Dickkopf-related protein 1 (Homo sapiens) (UniProt O94907); assay: DKK1 binders on small-molecule microarrays, primary screen, biochemical, small-molecule microarray, 635 nm fluorescence scan (AID 1106); settings: DKK1 binding, higher = more signal;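 also: score merges emission near 667 nm with signal to noise over three replicate slides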
Sequence (O94907 whole entry, looked up): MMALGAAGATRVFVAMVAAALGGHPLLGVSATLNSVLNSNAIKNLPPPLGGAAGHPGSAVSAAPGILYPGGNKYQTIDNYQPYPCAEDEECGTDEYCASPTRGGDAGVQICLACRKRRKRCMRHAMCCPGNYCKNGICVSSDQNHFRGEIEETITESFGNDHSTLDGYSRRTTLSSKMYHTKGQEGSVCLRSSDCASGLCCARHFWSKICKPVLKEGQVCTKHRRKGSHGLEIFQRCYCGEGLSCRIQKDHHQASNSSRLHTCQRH
One number for each entry.

INSERT INTO results (compound, measurement_type, test_result) VALUES
  ('CCN1C(C)=C(C(=O)OC)[C@@H](c2ccccc2)N2C(=O)[C@](O)(C(=O)OC)CC(C(C)=O)=C12', 'composite z-score', 0.514),
  ('COc1ccc(O[C@H]2C=C[C@@H](c3ccccc3)O[C@@H]2COC(=O)CCC(C)=NOC[C@@H](O)COCc2ccco2)cc1', 'composite z-score', -1.99),
  ('COC(=O)[C@H](Cc1ccccc1)NC(=O)[C@@H](C)CO', 'composite z-score', 0.671),
  ('CO[C@H]1COC(=O)CCC[C@H](C)[C@H](OC)COC(=O)CC=C[C@@H]1C', 'composite z-score', 0.872),
  ('CCOC(=O)[C@H](Cc1ccccc1)NC(=O)CCC1CC(OC(=O)NCc2ccc3c(c2)OCO3)CC2(CCCC(COC(=O)NCCOc3ccccc3)O2)O1 (stereo not given in full)', 'composite z-score', 1.16),
  ('COCCNC(=O)OCC1CCCC2(CC(OC(=O)NCc3cccc4ccccc34)CC(CCC(=O)N[C@@H](C)C(=O)OC)O2)O1 (stereo not given in full)', 'composite z-score', 0.735),
  ('CCOC(=O)CCN1C(=O)[C@H]2[C@H]3[C@H](O)[C@H](O)CC(=NO[C@@H]4O[C@H](CO)[C@@H](O)[C@H](O)[C@H]4O)[C@H]3CC[C@H]2C1=O', 'composite z-score', 0.315),
  ('COc1ccc(OC[C@H]2CN3[C@@H](CC[C@@H](C)[C@@H]3c3ccc(Br)cc3)C(=O)O2)cc1', 'composite z-score', 0.344);

Hey, quick one: what's composite z-score for each of these?
1. O=C1C2=CC[C@H]3C(=O)N(Cc4ccccc4)C(=O)[C@H]3[C@H]2[C@H](O)[C@@H]2O[C@H]12
2. COC(=O)CC=C[C@@H](C)[C@@H](C=NOC(C)CN1CCCCc2nc(C)c(C)cc21)OC (stereo not given in full)
3. CC(=O)OC[C@H]1O[C@@H](ON=C(C)C)[C@H](OC(C)=O)[C@@H](OC(C)=O)[C@@H]1OC(C)=O
4. COc1ccc(OC[C@@H]2CC3[C@@H](c4ccc(Br)cc4)[C@H](C)CC[C@H]3C(=O)O2)cc1 (stereo not given in full)
5. C[C@H]1CC[C@H]2C(=O)OC(COc3ccc(C(C)(C)C)cc3)CN2[C@@H]1c1ccc(Br)cc1 (stereo not given in full)
6. CCOC(=O)[C@H](CC(C)C)NC(=O)CCC1CC(OC(=O)NCCc2ccc(F)cc2)CC2(CCCC(COC(=O)NCCCN3CCCC3=O)O2)O1 (stereo not given in full)

(A)
1. 0.245
2. 1.33
3. -1.38
4. 0.827
5. -0.039
6. 0.946

Hey, quick one: what's composite z-score for each of these?
1. O=C1[C@H]2[C@H]3[C@H](O)[C@H](O)CC(=NOCc4ccccc4)[C@H]3CC[C@H]2C(=O)N1C1CCCCC1
2. CO[C@H]1COC(=O)[C@H](C)COC(=O)[C@@H](OCc2ccccc2)C=C[C@@H]1C
3. CCOC(=O)[C@H](Cc1ccccc1)NC(=O)CCC1CC(OC(=O)NCc2ccc3c(c2)OCO3)CC2(CCCC(COC(=O)NCCc3ccc(Cl)cc3)O2)O1 (stereo not given in full)

(A)
1: 0.79; 2: 0.32; 3: 0.531

Hey, quick one: what's composite z-score for each of these?
1. CC(C)CON=C1C[C@@H](O)[C@@H](O)[C@@H]2[C@@H]3C(=O)N(C(C)(C)C)C(=O)[C@@H]3CC[C@@H]12
2. CCc1cc2c(nc1CC)CCN(CCC(C)=NOC[C@@H](C)[C@H](OCc1ccccc1)C(C)C)C2

(A)
1: 1.95; 2: -1.06

Hey, quick one: what's composite z-score for each of these?
1. CC(CCC(=O)OC[C@H]1O[C@H](C#Cc2ccccc2)C=C[C@@H]1Oc1ccc(C)cc1)=NOC[C@@H](C)[C@H](OCc1ccccc1)C(C)C
2. CON=C(C)CCC(=O)OC[C@H]1O[C@H](C#Cc2ccccc2)C=C[C@@H]1Oc1ccc(C)cc1
3. C#CCCCON=C1C[C@@H](O)[C@@H](O)[C@@H]2[C@@H]3C(=O)N(CC)C(=O)[C@@H]3CC[C@H]12

(A)
-0.613
0.572
0.209

Hey, quick one: what's composite z-score for each of these?
1. COC(=O)[C@H](C)NC(=O)CCC1CC(OC(=O)NCc2cccc3ccccc23)CC2(CCCC(COC(=O)NCCC(C)C)O2)O1 (stereo not given in full)
2. CC(=O)OC[C@H]1O[C@@H](ON=C(C)CCC(=O)OC[C@H]2O[C@H](C#Cc3ccccc3)C=C[C@@H]2Oc2ccc(C)cc2)[C@H](OC(C)=O)[C@@H](OC(C)=O)[C@@H]1OC(C)=O

(A)
0.188
0.911

Hey, quick one: what's composite z-score for each of these?
1. CCN1C(=O)[C@H]2[C@H]3[C@H](O)[C@H](O)CC(=NO[C@@H](C)c4cc(-c5c(C)cc(C)cc5C)no4)[C@@H]3CC[C@H]2C1=O
2. CC[C@@H](c1ccccc1)n1c(=O)n2n(c1=O)[C@H]1[C@H](O)[C@@H]3O[C@@H]3C(=NOCc3ccccc3)[C@H]1CC2
3. C=CC[C@@H]1C=CC(ON=C(C)C)[C@@H](CO)O1 (stereo not given in full)
4. CCN1C(=O)[C@H]2[C@H]3[C@H](O)[C@H](O)CC(=NO[C@@H]4O[C@H](COC(C)=O)[C@@H](OC(C)=O)[C@H](OC(C)=O)[C@H]4OC(C)=O)[C@@H]3CC[C@H]2C1=O

(A)
0.647
0.235
-0.307
0.735

Hey, quick one: what's composite z-score for each of these?
1. CCOC(=O)[C@H](CC(C)C)NC(=O)CCC1CC(OC(=O)NCc2ccc3c(c2)OCO3)CC2(CCCC(COC(=O)NCCOc3ccccc3)O2)O1 (stereo not given in full)
2. CC(C)=CCCC(C)=CCON=C1C[C@@H](O)[C@@H](O)[C@@H]2[C@@H]3C(=O)N(C4CCCCC4)C(=O)[C@@H]3CC[C@H]12

(A)
1. 0.826
2. 0.873
